Origin of measurements: patent US20110301079A1

# tested-target: human NMUR2 (human, UniProt Q9GZQ4 1-415)
# Sequence (Q9GZQ4 whole entry): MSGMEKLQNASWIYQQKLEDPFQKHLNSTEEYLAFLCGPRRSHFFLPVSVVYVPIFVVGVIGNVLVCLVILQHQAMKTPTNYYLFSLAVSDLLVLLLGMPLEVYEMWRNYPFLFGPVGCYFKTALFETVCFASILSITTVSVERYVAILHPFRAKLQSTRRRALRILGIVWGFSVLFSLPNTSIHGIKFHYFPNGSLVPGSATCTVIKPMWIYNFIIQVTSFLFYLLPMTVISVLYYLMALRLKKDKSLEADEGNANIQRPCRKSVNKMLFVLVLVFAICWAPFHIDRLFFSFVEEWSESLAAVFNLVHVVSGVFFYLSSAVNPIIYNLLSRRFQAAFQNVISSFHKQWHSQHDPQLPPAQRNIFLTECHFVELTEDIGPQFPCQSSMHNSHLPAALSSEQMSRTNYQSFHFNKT
# assay-overview: cell-based or functional assay
Groups on a side chain read outwards from the residue. cholesteroyl = cholesterol group linked to a cysteine residue via the side-chain thiol
property: % Activity (maximum response at 1 µM compared to the human NMU-25 response) (%)

binder	result
H-ILQRGSGTAAVDFTKKDHTATWGRPFFLFRPRN-NH2 [native human Neuromedin S peptide (NMS)]	107
Ac-C([maleimide-(PEG)2 40 kDa])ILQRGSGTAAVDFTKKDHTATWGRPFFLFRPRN-NH2 [NMS1 (Ac-C2ILQRGSGTAAVDFTKKDHTATWGRPFFLFRPRN-CONH2)]	81
Ac-C(cholesteroyl)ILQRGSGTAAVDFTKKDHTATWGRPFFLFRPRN-NH2 [NMS2 (Ac-C3ILQRGSGTAAVDFTKKDHTATWGRPFFLFRPRN-CONH2)]	16
Ac-C([maleimide-PEG 40 kDa])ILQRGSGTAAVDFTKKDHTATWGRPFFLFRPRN-NH2 [NMS4 (Ac-C4ILQRGSGTAAVDFTKKDHTATWGRPFFLFRPRN-CONH2)]	94
